# tested system: T1, human MSLN-R3 on HEK293T-hMSLN-R3 recombinant cells (human, UniProt Q13421 487-606)
# T1 construct: the C-terminal limit is uncertain; also called human MSLN-R3 membrane protein
# T1 sequence (Q13421 495-614): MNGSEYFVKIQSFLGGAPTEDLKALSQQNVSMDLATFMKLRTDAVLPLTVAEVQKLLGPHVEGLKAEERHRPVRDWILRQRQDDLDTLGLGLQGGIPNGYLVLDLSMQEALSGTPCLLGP
# measurement protocol: FACS, HEK293T-hMSLN-R3 cells
measure name: EC50 (nM)
Give the quantity in nM, number only.

[
  {
    "binder": "F7.44.20-H12 (scFv, not shown: small tags and cut ends, also called S009-F7.44.20 humanized antibody VH2 + VL4) scFv: EVQLVQSGAEVKKPGASVKVSCKASGYTFTDYNMDWVRQAPGQGLEWMGDINPSTGGTIYNQKFNGRVTMTEDKSASTVYMELSSLRSEDTAVYYCARRRIGTGYFDVWGQGTTVTVSSGGGGSGGGGSGGGGSEIVLTQSPATLSLSPGERATLSCSASSSVISSYLSWYQQKPGSSPRLLIYRTSNLASGIPARFSGSGSGTDYTLTISSLEPEDFAVYYCHQWSSFPYTFGGGTKVEIK",
    "EC50 / nM": 2.88
  },
  {
    "binder": "F7.44.20-H16 (scFv, not shown: small tags and cut ends, also called S009-F7.44.20 humanized antibody VH2a + VL4) scFv: EVQLVQSGAEVKKPGASVKVSCKASGYTFTDYNMDWVRQAPGQGLEWMGDINPSTGGTIYNQKFSGRVTMTEDKSASTVYMELSSLRSEDTAVYYCARRRIGTGYFDVWGQGTTVTVSSGGGGSGGGGSGGGGSEIVLTQSPATLSLSPGERATLSCSASSSVISSYLSWYQQKPGSSPRLLIYRTSNLASGIPARFSGSGSGTDYTLTISSLEPEDFAVYYCHQWSSFPYTFGGGTKVEIK",
    "EC50 / nM": 2.23
  },
  {
    "binder": "F7.44.20-H15 (scFv, not shown: small tags and cut ends, also called S009-F7.44.20 humanized antibody VH2a + VL3) scFv: EVQLVQSGAEVKKPGASVKVSCKASGYTFTDYNMDWVRQAPGQGLEWMGDINPSTGGTIYNQKFSGRVTMTEDKSASTVYMELSSLRSEDTAVYYCARRRIGTGYFDVWGQGTTVTVSSGGGGSGGGGSGGGGSEIVLTQSPATLSLSPGERATLSCSASSSVISSYLSWYQQKPGQSPRLLIYRTSNLASGIPARFSGSGSGTDYTLTISSLEPEDFAVYYCHQWSSFPYTFGGGTKVEIK",
    "EC50 / nM": 0.91
  },
  {
    "binder": "F7.44.20-H9 (scFv, not shown: small tags and cut ends, also called S009-F7.44.20 humanized antibody VH2 + VL1) scFv: EVQLVQSGAEVKKPGASVKVSCKASGYTFTDYNMDWVRQAPGQGLEWMGDINPSTGGTIYNQKFNGRVTMTEDKSASTVYMELSSLRSEDTAVYYCARRRIGTGYFDVWGQGTTVTVSSGGGGSGGGGSGGGGSEIVLTQSPDFQSVTPKEKVTITCSASSSVISSYLSWYQQKPDQSPKLLIYRTSNLASGVPSRFSGSGSGTDFTLTINSLEAEDAATYYCHQWSSFPYTFGGGTKVEIK",
    "EC50 / nM": 1.67
  },
  {
    "binder": "F7.44.20-H5 (scFv, not shown: small tags and cut ends, also called S009-F7.44.20 humanized antibody VH1a + VL1) scFv: EVQLVQSGAEVKKPGASVKVSCKASGYTFTDYNMDWVRQAPGQGLEWMGDINPSTGGTIYNQKFQGRVTMTEDKSTSTVYMELSSLRSEDTAVYYCARRRIGTGYFDVWGQGTTVTVSSGGGGSGGGGSGGGGSEIVLTQSPDFQSVTPKEKVTITCSASSSVISSYLSWYQQKPDQSPKLLIYRTSNLASGVPSRFSGSGSGTDFTLTINSLEAEDAATYYCHQWSSFPYTFGGGTKVEIK",
    "EC50 / nM": 0.94
  }
]

Input: For the binder shown here, F7.44.20-H14 (scFv, not shown: small tags and cut ends, also called S009-F7.44.20 humanized antibody VH2a + VL2) scFv: EVQLVQSGAEVKKPGASVKVSCKASGYTFTDYNMDWVRQAPGQGLEWMGDINPSTGGTIYNQKFSGRVTMTEDKSASTVYMELSSLRSEDTAVYYCARRRIGTGYFDVWGQGTTVTVSSGGGGSGGGGSGGGGSEIVLTQSPDFQSVTPKEKVTITCSASSSVISSYLSWYQQKPDQSPKLLIYRTSNLASGVPSRFSGSGSGTDYTLTINSLEAEDAATYYCHQWSSFPYTFGGGTKVEIK , give the reported EC50.
Output: 1.52

Input: GET /values?readout=EC50&item= F7.44.20-H2 (scFv, not shown: small tags and cut ends, also called S009-F7.44.20 humanized antibody VH1 + VL2) scFv: EVQLVQSGAEVKKPGASVKVSCKASGYTFTDYNMDWVRQAPGQGLEWMGDINPSTGGTIYNQKFNGRVTMTEDKSTSTVYMELSSLRSEDTAVYYCARRRIGTGYFDVWGQGTTVTVSSGGGGSGGGGSGGGGSEIVLTQSPDFQSVTPKEKVTITCSASSSVISSYLSWYQQKPDQSPKLLIYRTSNLASGVPSRFSGSGSGTDYTLTINSLEAEDAATYYCHQWSSFPYTFGGGTKVEIK
Output: 1.71

Input: Endpoint output: EC50 of F7.44.20-VL-VH (scFv) QIVLTQSPALMSASPGEKVTLTCSASSSVISSYLSWYQQKPGSSPKLLIYRTSNLASGVPARFSGSGSGTSYSLTISSMEAEDAASYFCHQWSSFPYTFGGGTKLEIKGGGGSGGGGSGGGGSEVQLQQSGPELVKPGASVKIPCKASGYTFTDYNMDWVKQSHGKSLEWIGDINPSTGGTIYNQKFNGKATLTEDKSASTVYMEFRSLTSDDTAVYYCARRRIGTGYFDVWGTGTTVTVSS . Value?
Output: 0.48

Input: Field request: EC50 | item: Tab111 (scFv, not shown: small tags and cut ends, also called YP218 VL-(G4S)3-VH-his antibody; positive control) scFv: DVVMTQTPASVSEPVGGTVTIKCQASQRISSYLSWYQQKPGQRPKLLIFGASTLASGVPSRFKGSGSGTEYTLTISDLECADAATYYCQSYAYFDSNNWHAFGGGTEVVVGGGGSGGGGSGGGGSQQQLEESGGGLVKPEGSLTLTCKASGFDLGFYFYACWVRQAPGKGLEWIACIYTAGSGSTYYASWAKGRFTISKASSTTVTLQMTSLAAADTATYFCARSTANTRSTYYLNLWGPGTLVTVSS
Output: 0.76

Input: Param item = F7.44.20-H10 (scFv, not shown: small tags and cut ends, also called S009-F7.44.20 humanized antibody VH2 + VL2) scFv: EVQLVQSGAEVKKPGASVKVSCKASGYTFTDYNMDWVRQAPGQGLEWMGDINPSTGGTIYNQKFNGRVTMTEDKSASTVYMELSSLRSEDTAVYYCARRRIGTGYFDVWGQGTTVTVSSGGGGSGGGGSGGGGSEIVLTQSPDFQSVTPKEKVTITCSASSSVISSYLSWYQQKPDQSPKLLIYRTSNLASGVPSRFSGSGSGTDYTLTINSLEAEDAATYYCHQWSSFPYTFGGGTKVEIK ; retrieve measured EC50.
Output: 0.88

Origin of measurements: patent US20250250357A1
